- System: S. aureus IVES 2943
- assay.explanation: MIC, agar dilution method
- Type: cell-based
- measurement.conditions: Staphylococcus aureus, IVES2943, 18 h
Where a name gives a salt, the structure may show the parent alone.
assay.metric: MIC (µg/mL)

>>> value_reported("CCCNCC(=O)Nc1c(Cl)cc2c(c1O)C(=O)C1=C(O)[C@]3(O)C(=O)C(C(N)=O)=C(O)[C@@H](N(C)C)C3CC1C2 (some centres unmarked) [F, dihydrochloride]")
16
>>> value_reported("CN(C)CC(=O)Nc1c(Cl)cc2c(c1O)C(=O)C1=C(O)[C@]3(O)C(=O)C(C(N)=O)=C(O)[C@@H](N(C)C)C3CC1C2 (some centres unmarked)")
4
>>> value_reported("CCCCCNCC(=O)Nc1c(Cl)cc2c(c1O)C(=O)C1=C(O)[C@]3(O)C(=O)C(C(N)=O)=C(O)[C@@H](N(C)C)C3CC1C2 (some centres unmarked) [H, dihydrochloride]")
8
>>> value_reported("CN(C)CC(=O)Nc1c(O)c2c(c(N(C)C)c1Cl)CC1CC3[C@H](N(C)C)C(O)=C(C(N)=O)C(=O)[C@@]3(O)C(O)=C1C2=O (some centres unmarked)")
4

---

Collected MIC values appear next to each entry.
- Tested on: E. coli MC 4100 Tet sens.
- assay.explanation: MIC, agar dilution method
- Assay type: cell-based
- measurement.conditions: Escherichia coli, 18 hours at 35° C., read-out: MIC
Structures can show the parent of a compound that is named as a salt.
assay.metric: MIC (µg/mL)

>>> value_reported("CN(C)[C@@H]1C(O)=C(C(N)=O)C(=O)[C@@]2(O)C(O)=C3C(=O)c4c(cc(Cl)c(NC(=O)CN5CCCC5)c4O)CC3CC12 (stereo partly drawn) [E, dihydrochloride]")
0.25
>>> value_reported("CNCC(=O)Nc1c(Cl)cc2c(c1O)C(=O)C1=C(O)[C@]3(O)C(=O)C(C(N)=O)=C(O)[C@@H](N(C)C)C3CC1C2 (stereo partly drawn) [I, dihydrochloride]")
0.25
>>> value_reported("CCCNCC(=O)Nc1c(Cl)cc2c(c1O)C(=O)C1=C(O)[C@]3(O)C(=O)C(C(N)=O)=C(O)[C@@H](N(C)C)C3CC1C2 (stereo partly drawn) [F, dihydrochloride]")
0.12

---

- Test system: Enterococcus 12201
- assay.explanation: MIC, agar dilution method
- Assay type: cell-based
- measurement.conditions: Enterococcus, 12201, 18 h, 18 hours at 35° C.
Where a name gives a salt, the structure may show the parent alone.
assay.metric: MIC (µg/mL)

>>> value_reported("CN(C)CC(=O)Nc1c(O)c2c(c(N(C)C)c1Cl)CC1CC3[C@H](N(C)C)C(O)=C(C(N)=O)C(=O)[C@@]3(O)C(O)=C1C2=O (stereo partly drawn)")
0.12
>>> value_reported("CNCC(=O)Nc1c(Cl)cc2c(c1O)C(=O)C1=C(O)[C@]3(O)C(=O)C(C(N)=O)=C(O)[C@@H](N(C)C)C3CC1C2 (stereo partly drawn) [I, dihydrochloride]")
0.5
>>> value_reported("CCCCCNCC(=O)Nc1c(Cl)cc2c(c1O)C(=O)C1=C(O)[C@]3(O)C(=O)C(C(N)=O)=C(O)[C@@H](N(C)C)C3CC1C2 (stereo partly drawn) [H, dihydrochloride]")
0.25
>>> value_reported("CCCNCC(=O)Nc1c(Cl)cc2c(c1O)C(=O)C1=C(O)[C@]3(O)C(=O)C(C(N)=O)=C(O)[C@@H](N(C)C)C3CC1C2 (stereo partly drawn) [F, dihydrochloride]")
0.25
>>> value_reported("CN(C)[C@@H]1C(O)=C(C(N)=O)C(=O)[C@@]2(O)C(O)=C3C(=O)c4c(cc(Cl)c(NC(=O)CN5CCCC5)c4O)CC3CC12 (stereo partly drawn) [E, dihydrochloride]")
0.25

Origin of the recorded values: patent US5495032A
